From: patent US11213517B2

- assay.explanation: Plasma and brain concentrations of drugs at the end of the audiogenic seizure experiment (LC-MS)
- Format: in vivo, mouse
- cond: DBA/2J, mouse, plasma, oral, analyte VPA; COMPOUND 1 30 mg/kg 3 h + VPA 100 mg/kg 1 h before stimulus, oral gavage; mean ± SEM; read-out: Plasma concentration total
measured.quantity: concentration at 1 h (µg/mL)
Entry rule: numbers only, all in µg/mL.

Q) Let me know recorded concentration at 1 h for CCCC(CCC)C(=O)O , thanks.
A) 63.4

* * *

- assay.explanation: Plasma and brain concentrations of drugs at the end of the audiogenic seizure experiment (LC-MS)
- Format: in vivo, mouse
- cond: DBA/2J, mouse, plasma, oral, analyte LEV; COMPOUND 1 10 mg/kg 3 h + LEV 10 mg/kg 1 h before stimulus, oral gavage; mean ± SEM; read-out: Plasma concentration total
measured.quantity: concentration at 1 h (µg/mL)
Entry rule: numbers only, all in µg/mL.

Q) Let me know recorded concentration at 1 h for CC[C@@H](C(N)=O)N1CCCC1=O [LEV, (S)-2-(2-oxopyrrolidin-1-yl)butanamide] , thanks.
A) 5.78

* * *

- assay.explanation: Plasma and brain concentrations of drugs at the end of the audiogenic seizure experiment (LC-MS)
- Type: in vivo, mouse
- cond: DBA/2J, mouse, brain, oral, analyte COMPOUND 1; COMPOUND 1 10 mg/kg 3 h + VPA 100 mg/kg 1 h before stimulus, oral gavage; mean ± SEM; read-out: Brain concentration total
measured.quantity: concentration at 3 h (ng/g)
Entry rule: numbers only, all in ng/g.

Q) Let me know recorded concentration at 3 h for N#Cc1ccc(Cn2ccc(NC(=O)Cc3ccc(C4(C(F)(F)F)CC4)cc3)n2)nc1 , thanks.
A) 2040

* * *

- assay.explanation: Plasma and brain concentrations of drugs at the end of the audiogenic seizure experiment (LC-MS)
- Format: in vivo, mouse
- cond: DBA/2J, mouse, plasma, oral, 10 mg/kg, analyte LEV; vehicle 3 h + LEV 10 mg/kg 1 h before stimulus, oral gavage; mean ± SEM; read-out: Plasma concentration total
- Description: Briefly, blood was sampled from the vena cava caudalis with a syringe pre-filled with EDTA (ethylenediamine tetraacetic acid) as anticoagulant and centrifuged to yield plasma (for 10 minutes, at 4° C. and 5000 rpm (rounds per minute)). Brain was sampled and homogenized into one volume of cold phosphate buffer (pH 7.4). Following extraction with methanol, concentrations of the compound in plasma and brain were determined using liquid chromatography coupled to mass spectrometry. […]
measured.quantity: concentration at 1 h

Q) Let me know recorded concentration at 1 h for CC[C@@H](C(N)=O)N1CCCC1=O [LEV, (S)-2-(2-oxopyrrolidin-1-yl)butanamide] , thanks.
A) 4530 ng/mL

* * *

- assay.explanation: Plasma and brain concentrations of drugs at the end of the audiogenic seizure experiment (LC-MS)
- Assay type: in vivo, mouse
- cond: DBA/2J, mouse, brain, oral, analyte VPA; COMPOUND 1 30 mg/kg 3 h + VPA 30 mg/kg 1 h before stimulus, oral gavage; mean ± SEM; read-out: Brain concentration total
measured.quantity: concentration at 1 h (ng/g)
Entry rule: numbers only, all in ng/g.

Q) Let me know recorded concentration at 1 h for CCCC(CCC)C(=O)O [VPA, 2-propylpentanoic acid] , thanks.
A) 1010

* * *

- assay.explanation: Plasma and brain concentrations of drugs at the end of the audiogenic seizure experiment (LC-MS)
- Format: in vivo, mouse
- cond: DBA/2J, mouse, brain, oral, analyte COMPOUND 1; COMPOUND 1 30 mg/kg 3 h + LEV 10 mg/kg 1 h before stimulus, oral gavage; mean ± SEM; read-out: Brain concentration total
measured.quantity: concentration at 3 h (ng/g)
Entry rule: numbers only, all in ng/g.

Q) Let me know recorded concentration at 3 h for N#Cc1ccc(Cn2ccc(NC(=O)Cc3ccc(C4(C(F)(F)F)CC4)cc3)n2)nc1 , thanks.
A) 5470
